These measurements were taken from PubChem BioAssay AID330.

# System: P388 leukemia ip, CD2F1 mice, survival T/C
# procedure summary: NCI In Vivo Anticancer Drug Screen. Data for tumor model P388 Leukemia (intraperitoneal) in CD2F1 (CDF1) mice
# assay context: endpoint: median survival time; dose: 400.0 mg/kg/injection; schedule: Q04DX003 (ip); vehicle: saline with Tween-80; higher = longer survival
Toxic doses and inconclusive results are not listed.
T/C values for the molecules below.

Param item = Nc1nc2n(n1)C(=O)C(=O)N2 ; retrieve measured T/C.
103 % of control

Queued: CCOC(=O)C(C)(C)c1nc[nH]c1[N+](=O)[O-]
101 % of control

Try Clc1ccc(C=NCCN=Cc2ccc(Cl)c(Cl)c2)cc1Cl next.
90 % of control

Also NC(=S)N/N=C/c1cc(Br)ccc1O , if possible.
112 % of control

// next record Nc1nc2c(ncn2C2OC(CO)C(O)C2O)c(=O)[nH]1 (stereo unspecified)
100 % of control

Now take the following molecule into account.
So what does the record say about T/C for COc1ccc(C(=O)CC(C(=O)O)c2ccc(OC)cc2)cc1 (stereo unspecified) ?
99 % of control

---

# Test system: P388 leukemia ip, CD2F1 mice, survival T/C
# procedure summary: NCI In Vivo Anticancer Drug Screen. Data for tumor model P388 Leukemia (intraperitoneal) in CD2F1 (CDF1) mice
# assay context: endpoint: median survival time; dose: 100.0 mg/kg/injection; schedule: Q01DX009 (ip); vehicle: Klucel (hydroxypropylcellulose) (HPC); higher = longer survival
Inconclusive results and toxic doses are left out.
Measured T/C, listed per entry for reference.

Previously resolved entries follow.
Quick check: T/C of O=C(O)c1ccccc1C(=O)c1ccccn1 ?
97 % of control

Lookup CCCCCC(CN(C)C)C(O)CCc1ccc(Cl)c(Cl)c1 (configuration not stated)
104 % of control

Also check CCOC(=O)CCS(=O)c1ccccc1 (configuration not stated)
109 % of control

More entries:
Using the record for NC(=O)NCCSc1ccc(SCCNC(N)=O)nn1 , report its T/C.
100 % of control

Also check CC(/C=N/N=C1\C(=O)Nc2ccccc21)=C\c1ccccc1
94 % of control

Try this molecule next: Cc1ccc(S(=O)(=O)OCCN(CCOS(=O)(=O)c2ccc(C)cc2)S(=O)(=O)c2ccc(C)cc2)cc1
100 % of control

---

# Test system: P388 leukemia ip, CD2F1 mice, survival T/C
# procedure summary: NCI In Vivo Anticancer Drug Screen. Data for tumor model P388 Leukemia (intraperitoneal) in CD2F1 (CDF1) mice
# assay context: endpoint: median survival time; dose: 100.0 mg/kg/injection; schedule: Q01DX001 (ip); vehicle: saline with Tween-80; higher = longer survival
Toxic doses and inconclusive results are not listed.
experimental readout: T/C

Here are 5 molecules together with their reported answers.
What value of T/C has been recorded for this entry: OCC(Br)(Br)Br
100 % of control

Request: c1ccc(N2CCCCCN2c2ccccc2)cc1
100 % of control

Item: C=Cc1ccc(NC(=O)CCn2ccc(N)nc2=O)cc1
102 % of control

Now the same for COC1=CC2C3C(=O)NC(=O)C3C1C1CC(C#N)C21OC (stereo unspecified)
104 % of control

Thanks! And CCCCCOC(=O)C1=CCN2CCCC12C (stereo unspecified) ?
97 % of control

Next, consider the following molecule.
If you can, please state the reported T/C value of Cc1ccc(S(=O)(=O)Nc2ccc3nc(C)oc3c2)cc1 .
100 % of control
